Overview of recorded emission maximum for various compounds
assayInfo: solvent given as SMILES
testConditions: in c1ccccc1
Answer format: numeric, nm implied, no suffix.

For orientation, consider the following solved cases.
>>> print(df.to_string())
                               recordsmiles  numericresult
0  Cc1cc(C)c(B(c2c(C)cc(C)cc2C)c2cc3cc(N(C)C)c4ccccc4c3c3c2ccc2ccccc23)c(C)c1            539
1             COc1ccc(-c2nc3ccccc3oc2=O)cc1            444

Then there is this compound:
Q: Please look up its emission maximum: "Oc1ccc(/N=C/c2ccccc2Oc2ccccc2)cc1"
A: 414
